- procedureText: Pharmacokinetics study of KPT-335 in cats (i.v. injection, p.o. capsules and tablets; UPLC-MS/MS, non-compartmental analysis)
- Format: in vivo
- studyConditions: both sexes, plasma, po, 2 mg/kg, cats, p.o., Capsule, Fasting, 2 mg/kg BW; read-out: Lambda_z (converted)
- Protocol: In this study, a parallel trial design was employed, 42 adult domestic cats (21 males and 21 females), aged 1 to 2 years and weighing 2.5 ± 0.25 kg. Cats were grouped by random number, with half male and female in each group, and all cats were determined to be systemically healthy during an initial screening visit 1 week prior to the experiment. They were acclimatized to the laboratory environment for 7 days before the study commenced. […]
reportedMetric: k el (s⁻¹)
Numeric answer only, unit s⁻¹ assumed.

Enquiry: Tell me the measured k el of O=C(/C=C\n1cnc(-c2cc(C(F)(F)F)cc(C(F)(F)F)c2)n1)NNc1ccccn1 , please.
Return: 2.78e-05

* * *

- procedureText: Pharmacokinetics study of KPT-335 in cats (i.v. injection, p.o. capsules and tablets; UPLC-MS/MS, non-compartmental analysis)
- Assay type: in vivo
- studyConditions: male, plasma, po, 0.2 mg/kg, male cats, p.o., Capsule, Fasting, 0.2 mg/kg BW; read-out: AUClast Value males
reportedMetric: AUC(0-t) (ng·h/mL)
Numeric answer only, unit ng·h/mL assumed.

Enquiry: Tell me the measured AUC(0-t) of O=C(/C=C\n1cnc(-c2cc(C(F)(F)F)cc(C(F)(F)F)c2)n1)NNc1ccccn1 , please.
Return: 312

* * *

- procedureText: Pharmacokinetics study of KPT-335 in cats (i.v. injection, p.o. capsules and tablets; UPLC-MS/MS, non-compartmental analysis)
- Type: in vivo
- studyConditions: both sexes, plasma, po, 1 mg/kg, cats, p.o., Capsule, Fasting, 1 mg/kg BW; read-out: AUClast
reportedMetric: AUC(0-t) (ng·h/mL)
Numeric answer only, unit ng·h/mL assumed.

Enquiry: Tell me the measured AUC(0-t) of O=C(/C=C\n1cnc(-c2cc(C(F)(F)F)cc(C(F)(F)F)c2)n1)NNc1ccccn1 [KPT-335] , please.
Return: 1420

* * *

- procedureText: Pharmacokinetics study of KPT-335 in cats (i.v. injection, p.o. capsules and tablets; UPLC-MS/MS, non-compartmental analysis)
- Format: in vivo
- studyConditions: male, plasma, po, 2 mg/kg, male cats, p.o., Capsule, Fasting, 2 mg/kg BW; read-out: Cmax Value males
- Procedure: In this study, a parallel trial design was employed, 42 adult domestic cats (21 males and 21 females), aged 1 to 2 years and weighing 2.5 ± 0.25 kg. Cats were grouped by random number, with half male and female in each group, and all cats were determined to be systemically healthy during an initial screening visit 1 week prior to the experiment. They were acclimatized to the laboratory environment for 7 days before the study commenced. […]
reportedMetric: Cmax (ng/mL)
Numeric answer only, unit ng/mL assumed.

Enquiry: Tell me the measured Cmax of O=C(/C=C\n1cnc(-c2cc(C(F)(F)F)cc(C(F)(F)F)c2)n1)NNc1ccccn1 , please.
Return: 328

* * *

- procedureText: Pharmacokinetics study of KPT-335 in cats (i.v. injection, p.o. capsules and tablets; UPLC-MS/MS, non-compartmental analysis)
- Assay type: in vivo
- studyConditions: both sexes, cat, plasma, po, 2 mg/kg, cats, capsule p.o. 2 mg/kg BW, 8 h, mean
reportedMetric: concentration at 8 h

Enquiry: Tell me the measured concentration at 8 h of O=C(/C=C\n1cnc(-c2cc(C(F)(F)F)cc(C(F)(F)F)c2)n1)NNc1ccccn1 , please.
Return: 74.1 ng/mL

* * *

- procedureText: Pharmacokinetics study of KPT-335 in cats (i.v. injection, p.o. capsules and tablets; UPLC-MS/MS, non-compartmental analysis)
- Assay type: in vivo
- studyConditions: both sexes, cat, plasma, po, 0.2 mg/kg, cats, capsule p.o. 0.2 mg/kg BW, 1 h, mean; read-out: Plasma concentration Mean
reportedMetric: concentration at 1 h (ng/mL)
Numeric answer only, unit ng/mL assumed.

Enquiry: Tell me the measured concentration at 1 h of O=C(/C=C\n1cnc(-c2cc(C(F)(F)F)cc(C(F)(F)F)c2)n1)NNc1ccccn1 , please.
Return: 21.5

* * *

- procedureText: Pharmacokinetics study of KPT-335 in cats (i.v. injection, p.o. capsules and tablets; UPLC-MS/MS, non-compartmental analysis)
- Format: in vivo
- studyConditions: both sexes, plasma, iv, 1 mg/kg, cats, Injection, 1 mg/kg BW
reportedMetric: MRT last

Enquiry: Tell me the measured MRT last of O=C(/C=C\n1cnc(-c2cc(C(F)(F)F)cc(C(F)(F)F)c2)n1)NNc1ccccn1 [KPT-335] , please.
Return: 4.73 h

* * *

- procedureText: Pharmacokinetics study of KPT-335 in cats (i.v. injection, p.o. capsules and tablets; UPLC-MS/MS, non-compartmental analysis)
- Type: in vivo
- studyConditions: both sexes, plasma, po, 0.2 mg/kg, cats, p.o., Capsule, Fasting, 0.2 mg/kg BW; read-out: AUClast
reportedMetric: AUC(0-t) (µg·h/mL)
Numeric answer only, unit µg·h/mL assumed.

Enquiry: Tell me the measured AUC(0-t) of O=C(/C=C\n1cnc(-c2cc(C(F)(F)F)cc(C(F)(F)F)c2)n1)NNc1ccccn1 [KPT-335] , please.
Return: 0.278

* * *

- procedureText: Pharmacokinetics study of KPT-335 in cats (i.v. injection, p.o. capsules and tablets; UPLC-MS/MS, non-compartmental analysis)
- Assay type: in vivo
- studyConditions: both sexes, cat, plasma, po, 1 mg/kg, cats, capsule p.o. 1 mg/kg BW, 48 h, individual cats 1-6; read-out: Plasma concentration
reportedMetric: concentration at 48 h (ng/mL)
Numeric answer only, unit ng/mL assumed.

Enquiry: Tell me the measured concentration at 48 h of O=C(/C=C\n1cnc(-c2cc(C(F)(F)F)cc(C(F)(F)F)c2)n1)NNc1ccccn1 [KPT-335] , please.
Return: 0.69

* * *

- procedureText: Pharmacokinetics study of KPT-335 in cats (i.v. injection, p.o. capsules and tablets; UPLC-MS/MS, non-compartmental analysis)
- Format: in vivo
- studyConditions: both sexes, cat, plasma, po, 1 mg/kg, cats, tablet p.o. 1 mg/kg BW after feeding, 1.5 h, mean; read-out: Plasma concentration Mean
reportedMetric: concentration at 1.5 h (ng/mL)
Numeric answer only, unit ng/mL assumed.

Enquiry: Tell me the measured concentration at 1.5 h of O=C(/C=C\n1cnc(-c2cc(C(F)(F)F)cc(C(F)(F)F)c2)n1)NNc1ccccn1 , please.
Return: 321

* * *

- procedureText: Pharmacokinetics study of KPT-335 in cats (i.v. injection, p.o. capsules and tablets; UPLC-MS/MS, non-compartmental analysis)
- Assay type: in vivo
- studyConditions: female, plasma, iv, 1 mg/kg, female cats, i.v., Injection, 1 mg/kg BW; read-out: AUClast Value females
reportedMetric: AUC(0-t)

Enquiry: Tell me the measured AUC(0-t) of O=C(/C=C\n1cnc(-c2cc(C(F)(F)F)cc(C(F)(F)F)c2)n1)NNc1ccccn1 , please.
Return: 3060 ng·h/mL

* * *

- procedureText: Pharmacokinetics study of KPT-335 in cats (i.v. injection, p.o. capsules and tablets; UPLC-MS/MS, non-compartmental analysis)
- Format: in vivo
- studyConditions: both sexes, cat, plasma, po, 0.2 mg/kg, cats, capsule p.o. 0.2 mg/kg BW, 0.33 h, mean
reportedMetric: concentration at 0.33 h (ng/mL)
Numeric answer only, unit ng/mL assumed.

Enquiry: Tell me the measured concentration at 0.33 h of O=C(/C=C\n1cnc(-c2cc(C(F)(F)F)cc(C(F)(F)F)c2)n1)NNc1ccccn1 , please.
Return: 6.56

* * *

- procedureText: Pharmacokinetics study of KPT-335 in cats (i.v. injection, p.o. capsules and tablets; UPLC-MS/MS, non-compartmental analysis)
- Type: in vivo
- studyConditions: both sexes, cat, plasma, iv, 1 mg/kg, cats, i.v. 1 mg/kg BW, 32 h, mean
reportedMetric: concentration at 32 h (ng/mL)
Numeric answer only, unit ng/mL assumed.

Enquiry: Tell me the measured concentration at 32 h of O=C(/C=C\n1cnc(-c2cc(C(F)(F)F)cc(C(F)(F)F)c2)n1)NNc1ccccn1 [KPT-335] , please.
Return: 4.86

* * *

- procedureText: Pharmacokinetics study of KPT-335 in cats (i.v. injection, p.o. capsules and tablets; UPLC-MS/MS, non-compartmental analysis)
- Assay type: in vivo
- studyConditions: both sexes, cat, plasma, po, 1 mg/kg, cats, tablet p.o. 1 mg/kg BW after feeding, 8 h, mean
reportedMetric: concentration at 8 h
Remember to quote the unit after the number.

Enquiry: Tell me the measured concentration at 8 h of O=C(/C=C\n1cnc(-c2cc(C(F)(F)F)cc(C(F)(F)F)c2)n1)NNc1ccccn1 [KPT-335] , please.
Return: 107 ng/mL

Source of measurements: paper PMC12078333
